- assay-target: UniProt Q96RU2
- Sequence (Q96RU2 whole entry, looked up): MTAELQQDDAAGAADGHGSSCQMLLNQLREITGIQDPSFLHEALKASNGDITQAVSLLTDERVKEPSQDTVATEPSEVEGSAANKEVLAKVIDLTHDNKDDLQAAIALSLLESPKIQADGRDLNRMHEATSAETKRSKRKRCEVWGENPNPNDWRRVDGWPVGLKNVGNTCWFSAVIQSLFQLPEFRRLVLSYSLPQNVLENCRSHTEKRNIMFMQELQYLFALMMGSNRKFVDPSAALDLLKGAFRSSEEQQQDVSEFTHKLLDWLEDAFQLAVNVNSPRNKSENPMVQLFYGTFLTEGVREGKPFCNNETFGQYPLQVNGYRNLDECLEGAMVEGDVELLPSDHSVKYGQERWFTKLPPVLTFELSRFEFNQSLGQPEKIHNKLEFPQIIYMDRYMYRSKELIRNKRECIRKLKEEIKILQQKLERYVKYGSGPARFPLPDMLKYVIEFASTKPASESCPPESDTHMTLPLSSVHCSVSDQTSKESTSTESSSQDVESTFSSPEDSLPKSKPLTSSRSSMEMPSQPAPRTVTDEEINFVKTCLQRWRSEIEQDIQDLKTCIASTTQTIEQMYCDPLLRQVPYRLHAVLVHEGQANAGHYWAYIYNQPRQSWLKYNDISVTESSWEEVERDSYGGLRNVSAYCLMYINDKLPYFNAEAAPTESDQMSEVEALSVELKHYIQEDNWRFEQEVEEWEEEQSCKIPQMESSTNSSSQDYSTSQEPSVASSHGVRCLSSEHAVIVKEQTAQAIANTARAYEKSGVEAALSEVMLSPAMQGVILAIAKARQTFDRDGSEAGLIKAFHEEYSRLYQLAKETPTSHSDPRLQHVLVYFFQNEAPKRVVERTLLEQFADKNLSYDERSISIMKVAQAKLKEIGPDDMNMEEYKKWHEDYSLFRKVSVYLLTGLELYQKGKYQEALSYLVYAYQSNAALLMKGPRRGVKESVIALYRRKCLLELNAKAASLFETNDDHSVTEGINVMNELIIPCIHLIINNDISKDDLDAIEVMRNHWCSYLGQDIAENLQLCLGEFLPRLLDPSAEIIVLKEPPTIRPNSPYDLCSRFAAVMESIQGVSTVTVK
- experimental-protocol: Concentration-response biochemical assay confirming initial hits as inhibitors of ubiquitin-specific protease 28 (AID 1645866)
- measurement-parameters: purified USP28, ubiquitin-rhodamine fluorescence, 30 min
Activity calls are given as the source filed them.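 How the source made its calls: active means in confirmatory dose-response testing, peak deubiquitinase inhibition of 30% or more; inactive means the rest.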
Give your call using only these classes: active, inactive

> print(dat)
                                   compound  class.assignment
1   O=C(Nc1ccc2c(c1)OCCO2)c1cc(CN2CCCC2)on1            active
2  O=C(CSc1nc2ccccc2n1S(=O)(=O)c1ccc(Br)cc1)Nc1ccc([N+](=O)[O-])cc1Cl            active
3    O=c1c(NCCCN2CCCC2)nc2ccncc2n1Cc1ccccc1          inactive
4  Cc1ccc(-c2nc(Cn3nnc(-c4nc(-c5ccccn5)no4)c3C)c(C)o2)cc1          inactive
5  CCOc1ccc(NC(=O)Cn2cnc(S(=O)(=O)N3CCc4ccccc43)c2)cc1            active

Incoming: What call does the record list for `Cc1ccc(NC(=O)Cc2nnc3cc(-c4nc(C)no4)ccn23)cc1` ?
Outgoing: active

Incoming: What call does the record list for `COc1cnc(-c2ccccn2)nc1Sc1ccc(C)cc1` ?
Outgoing: inactive

Each recorded value in this set is attributed to PubChem BioAssay AID1645866.
